Attribution: PubChem BioAssay (NCI)

The entries below come with measured TGI values attached.
- Test system: NCI-H522 lung
- Protocol: NCI tumour cell line growth inhibition, 48 h
Give the value in µM but do not write µM after it.

O=C(O)C(Cc1ccccc1)N1C(=O)/C(=C/C(Cl)=C/c2ccc([N+](=O)[O-])cc2)SC1=S (stereo not given) : 4.47
COc1c(OC2OC(C)C(O)C(O)C2O)c(OC)c2oc(-c3ccc(O)cc3)cc(=O)c2c1O (stereo not given) : 64.5
O=S1(=O)CCC2=CC(C(F)(F)F)=CC(C(F)(F)F)=CN21 : 0.601
C=C(c1ccccc1)c1cc2c(=O)[nH]ccc2n1C : 54.9

Next:
[ask] What does the record list as TGI for `C=CC(C)(C)/C(=C\CO[Si](C(C)C)(C(C)C)C(C)C)C(=O)N(C)c1ccccc1I` ?
[reply] 19
